System: BT-549
procedure.text: NCI tumour cell line growth inhibition, 48 h
Calls of active or inactive are those of the source. Rule as the data show it: active = GI50 up to about 1.1 µM and inactive = higher. Where a SMILES comes first, the peptide text is derived from it. [ ]: non-standard residue; d: D form. The star is where a group is joined. ξ: configuration not given here. ξD = NC(CC(=O)O)C(=O)O; Boc = CC(C)(C)OC(=O)*; Aib = CC(C)(N)C(=O)O; OBn = c1ccc(CO*)cc1
Please state which outcome applies, choosing from 1 (active), -1 (inactive)

{"columns": ["compound", "qualitative.label"],
 "data": [
  ["CO[C@H]1C[C@@H]2CC[C@@H](C)[C@@](O)(O2)C(=O)C(=O)N2CCCC[C@H]2C(=O)O[C@H]([C@H](C)C[C@@H]2CC[C@@H](O)[C@H](OC)C2)CC(=O)[C@H](C)C=C(C)[C@@H](O)[C@@H](OC)C(=O)[C@H](C)C[C@H](C)/C=C/C=C/C=C1C", -1]
]}

-- ask Any idea what this test logged for Cc1c2cc[n+](C)c(C)c2cc2c1[nH]c1ccccc12 ?
-- reply -1

-- ask Any idea what this test logged for CCOC(=O)/C=C(/C(=O)OCC)n1c(=O)c(C)cn(C2CC(N=[N+]=[N-])C(CO)O2)c1=O (stereo unspecified) ?
-- reply -1

-- ask Any idea what this test logged for C[S+]([O-])c1ncc2c(n1)-c1ccccc1OC2 (stereo unspecified) ?
-- reply -1

-- ask Any idea what this test logged for CC(=O)Nc1cc2nc3n(c2cc1C)CCC3OC(C)=O (stereo unspecified) ?
-- reply -1

-- ask Any idea what this test logged for COc1cc(/C=C(\C#N)c2ccccn2)cc(Br)c1O ?
-- reply -1

-- ask Any idea what this test logged for CSc1nncc2[nH]cnc12 ?
-- reply -1

-- ask Any idea what this test logged for O=[N+]([O-])c1cc(-c2nc(-c3ccccc3)c(-c3ccccc3)[nH]2)c(O)c([N+](=O)[O-])c1 ?
-- reply -1

-- ask Any idea what this test logged for O=S1(=O)OCCOS(=O)(=O)C1Cc1nc2ccccc2[nH]1 ?
-- reply -1

-- ask Any idea what this test logged for S=c1sc2nc(Cl)nc(Cl)c2s1 ?
-- reply -1

-- ask Any idea what this test logged for N#CCCN(CCC#N)c1ccc(/C=C2\N=C(c3ccccc3)N(c3ccc(Cl)cc3)C2=O)cc1 ?
-- reply -1

-- ask Any idea what this test logged for COc1ccc2[nH]c3c(O)c(-c4c(C)cc5c([nH]c6ccc(OC)cc65)c4O)c(C)cc3c2c1 ?
-- reply -1

-- ask Any idea what this test logged for CCCCn1c(C)c(C)c2c1NN=C(C#N)S2(=O)=O ?
-- reply -1

-- ask Any idea what this test logged for CC(C)=C1CCC(CN2CCOCC2)C1=O (stereo unspecified) ?
-- reply -1

-- ask Any idea what this test logged for CC(C)(C)OC(=O)NC(CC(=O)OCc1ccccc1)C(=O)NC(C)(C)C(N)=O (stereo unspecified) (Boc-[ξD](OBn)-[Aib]-NH2) ?
-- reply -1

-- ask Any idea what this test logged for C=C1[C@@H]2CCC3[C@]4(C)C(CC[C@@]5(C)C(=O)O[C@H](O)[C@@H]45)[C@H](O)[C@]3(C2)[C@H]1OC1OC(CO)C(O)C(O)C1O (stereo partly specified) ?
-- reply -1

-- ask Any idea what this test logged for O=[N+]([O-])c1ccc2ncccc2c1CCc1c([N+](=O)[O-])ccc2ncccc12 ?
-- reply -1
